Read-out: Vascular cell adhesion molecule 1 (VCAM1), VCAM1 (gene 7412)
measurement protocol: BSK_CASM3C_VCAM1: BioMAP Diversity Plus: CASM3C Assay for Vascular cell adhesion molecule 1 (VCAM1) Biomarker Activity (AID 2283055);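 note: VCAM-1 protein level quantified by ELISA on the cells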
condition details: primary human coronary artery smooth muscle cells; actives raise or lower the signal
Activity calls are given as the source filed them. Rule for the calls: active = hit-call score of the fitted dose curve at least 0.9, where 1 is the maximum; inactive = score below 0.9.
Thanks in advance; please answer with one of these: yes = active, no = inactive

Task: Per the records of this test, what outcome belongs to CC1(C)CCC(=Cc2ccc(Cl)cc2)C1(O)Cn1cncn1 (configuration not stated) ?
Result: no

Task: Per the records of this test, what outcome belongs to `CC(C)N1C(=O)c2ccccc2NS1(=O)=O` ?
Result: no

Task: Per the records of this test, what outcome belongs to COCc1cnc(C2=NC(C)(C(C)C)C(=O)N2)c(C(=O)O)c1 (configuration not stated) ?
Result: no

Task: Per the records of this test, what outcome belongs to `CS(=O)(=O)c1ccc(C(=O)C2C(=O)CCCC2=O)c([N+](=O)[O-])c1` ?
Result: no

Task: Per the records of this test, what outcome belongs to CCOc1cc(C(C)(C)C)ccc1C1COC(c2c(F)cccc2F)=N1 (configuration not stated) ?
Result: no

Task: Per the records of this test, what outcome belongs to `CCNC(=O)NC(=O)C(C#N)=NOC` ?
Result: no

Task: Per the records of this test, what outcome belongs to `CCCCOCN(C(=O)CCl)c1c(CC)cccc1CC` ?
Result: yes

Task: Per the records of this test, what outcome belongs to `COc1cc(OC)nc(NC(=O)NS(=O)(=O)c2ncccc2OCC(F)(F)F)n1` ?
Result: no

Task: Per the records of this test, what outcome belongs to `Nc1c(Cl)c(Cl)nc(C(=O)O)c1Cl` ?
Result: no

Task: Per the records of this test, what outcome belongs to `Clc1cccc(C(Cl)(Cl)Cl)n1` ?
Result: no

Task: Per the records of this test, what outcome belongs to COCC(C)N(C(=O)CCl)c1c(C)csc1C (configuration not stated) ?
Result: no

Task: Per the records of this test, what outcome belongs to `N#Cc1c[nH]cc1-c1cccc2c1OC(F)(F)O2` ?
Result: no

Task: Per the records of this test, what outcome belongs to `O=C(Nc1ccccc1-c1ccc(Cl)cc1)c1cccnc1Cl` ?
Result: no

Task: Per the records of this test, what outcome belongs to `COC(=O)N(C(=O)N1CO[C@@]2(C(=O)OC)Cc3cc(Cl)ccc3C2=N1)c1ccc(OC(F)(F)F)cc1` ?
Result: no

Task: Per the records of this test, what outcome belongs to `CCOc1nc(F)cc2nc(S(=O)(=O)Nc3c(Cl)cccc3Cl)nn12` ?
Result: no

Task: Per the records of this test, what outcome belongs to `CC(C)Oc1cccc(NC(=O)c2ccccc2C(F)(F)F)c1` ?
Result: no

Task: Per the records of this test, what outcome belongs to `CCOP(=S)(OCC)Oc1nc(Cl)n(C(C)C)n1` ?
Result: no

----------
measurement protocol: Tanguay_ZF_120hpf_TRUN_legacy: (Legacy) Oregon State University Tanguay Lab 120 Hour Post-fertilization zebrafish Assay for Truncated Body (AID 2283655)
Records with an inconclusive call do not appear. The source made the active and inactive calls. The calls were made as follows: active = hit-call score of the fitted dose curve at least 0.9, where 1 is the maximum; inconclusive = response in the unintended direction; inactive = score below 0.9.
Thanks in advance; please answer with one of these: YES (active), NO (inactive)

Task: Per the records of this test, what outcome belongs to `C=CCOC(=O)C(C)(C)OC(=O)c1cc(-n2c(=O)cc(C(F)(F)F)n(C)c2=O)ccc1Cl` ?
Result: NO

Task: Per the records of this test, what outcome belongs to `CNC(=O)Oc1cccc2ccccc12` ?
Result: NO

Task: Per the records of this test, what outcome belongs to `N#CN=C1SCCN1Cc1ccc(Cl)nc1` ?
Result: NO

Task: Per the records of this test, what outcome belongs to `CC(C)N1C(=O)c2ccccc2NS1(=O)=O` ?
Result: NO

Task: Per the records of this test, what outcome belongs to `Clc1nc(Cl)nc(Nc2ccccc2Cl)n1` ?
Result: NO

Task: Per the records of this test, what outcome belongs to CCCCC(C#N)(Cn1cncn1)c1ccc(Cl)cc1 (stereo not given) ?
Result: YES

Task: Per the records of this test, what outcome belongs to `COP(=O)(OC)O/C(C)=C/C(=O)N(C)C` ?
Result: NO

Task: Per the records of this test, what outcome belongs to CCOc1cc(C(C)(C)C)ccc1C1COC(c2c(F)cccc2F)=N1 (stereo not given) ?
Result: NO

Task: Per the records of this test, what outcome belongs to `CN/C(=N\[N+](=O)[O-])NCc1cnc(Cl)s1` ?
Result: NO

Task: Per the records of this test, what outcome belongs to `COC(=O)NC(=S)Nc1ccccc1NC(=S)NC(=O)OC` ?
Result: NO

Task: Per the records of this test, what outcome belongs to `CCOP(=S)(OCC)Oc1nc(Cl)n(C(C)C)n1` ?
Result: YES

Task: Per the records of this test, what outcome belongs to `CCOP(=O)(OCC)Oc1nc(Cl)c(Cl)cc1Cl` ?
Result: NO

Task: Per the records of this test, what outcome belongs to `O=c1n(Cl)c(=O)n(Cl)c(=O)n1Cl` ?
Result: NO

Task: Per the records of this test, what outcome belongs to `CC(C)Nc1nc(Cl)nc(NC(C)C)n1` ?
Result: NO

Task: Per the records of this test, what outcome belongs to `N#Cc1c(Cl)cccc1Cl` ?
Result: NO

Task: Per the records of this test, what outcome belongs to CCOC(=O)C(C)OC(=O)c1cc(Oc2ccc(C(F)(F)F)cc2Cl)ccc1[N+](=O)[O-] (stereo not given) ?
Result: NO

Task: Per the records of this test, what outcome belongs to `CS(=O)(=O)c1ccc(C(=O)C2C(=O)CCCC2=O)c([N+](=O)[O-])c1` ?
Result: NO

Task: Per the records of this test, what outcome belongs to CC1(C)CCC(=Cc2ccc(Cl)cc2)C1(O)Cn1cncn1 (stereo not given) ?
Result: NO

Task: Per the records of this test, what outcome belongs to `Cc1ccc(N=CN(C)C=Nc2ccc(C)cc2C)c(C)c1` ?
Result: NO

Task: Per the records of this test, what outcome belongs to `O=C(Nc1ccccc1-c1ccc(Cl)cc1)c1cccnc1Cl` ?
Result: NO

Task: Per the records of this test, what outcome belongs to CCCC(=NOCC)C1=C(O)CC(CC(C)SCC)CC1=O (stereo not given) ?
Result: NO

Task: Per the records of this test, what outcome belongs to `Nc1cnn(-c2ccccc2)c(=O)c1Cl` ?
Result: NO

Task: Per the records of this test, what outcome belongs to `CNC(=O)N(C)c1nnc(C(C)(C)C)s1` ?
Result: NO

Task: Per the records of this test, what outcome belongs to `COc1ccc(-c2ccccc2)cc1NNC(=O)OC(C)C` ?
Result: NO

Task: Per the records of this test, what outcome belongs to `CCNC(=O)NC(=O)C(C#N)=NOC` ?
Result: NO
